Known inhibition of a selection of molecules
Biological target: Pantothenate synthetase (Mycobacterium tuberculosis (strain ATCC 25618 / H37Rv)) (UniProt P9WIL5)
Sequence (P9WIL5 whole entry, looked up): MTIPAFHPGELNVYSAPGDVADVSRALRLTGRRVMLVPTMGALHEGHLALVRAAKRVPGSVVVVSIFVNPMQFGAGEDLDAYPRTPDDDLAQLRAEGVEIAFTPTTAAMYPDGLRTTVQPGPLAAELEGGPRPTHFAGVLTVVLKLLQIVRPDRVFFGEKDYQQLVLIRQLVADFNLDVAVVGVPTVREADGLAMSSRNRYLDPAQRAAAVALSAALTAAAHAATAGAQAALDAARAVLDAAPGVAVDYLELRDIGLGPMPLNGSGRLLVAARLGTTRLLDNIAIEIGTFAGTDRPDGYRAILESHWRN
Experiment: Coupled enzyme confirmation of inhibitors against recombinant Mtb PanC (AID 375);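 further: 0% = full reaction with vehicle and 100% = no enzyme background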
Settings: coupled enzyme assay; at 10 µM, active compounds read high
Express the result in % but write the number alone.

Here's what some known entries look like.
O=C(O)C1CC(=O)N(Cc2ccccc2)C1 (stereo not drawn) = 1
COc1ccccc1C(=O)NCCc1nc2ccccc2n1C = 1

Kindly consider the entry below.
Please list inhibition recorded for the molecule CCCCCn1c(CN(C)Cc2ccccc2)nc2c1c(=O)n(C)c(=O)n2C
1

###

Experiment: growth suppression of yeast trafficking mutant, preliminary HTS, modulators of trafficking downstream of Golgi apparatus project, 1536-format plate, OD 615 nm (AID 637)
Details: yeast transport mutant growth, absorbance 615 nm, 18 h; active compounds read high
Known inhibition of a selection of compounds
Express the result in % but write the number alone.

Please list inhibition recorded for the compound NCC1(CC(=O)O)CCCCC1
2

###

Known inhibition of a selection of compounds
Molecular target: Pantothenate synthetase (Mycobacterium tuberculosis (strain ATCC 25618 / H37Rv)) (UniProt P9WIL5)
Experiment: Coupled enzyme confirmation of inhibitors against recombinant Mtb PanC (AID 375);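 further: 0% = full reaction with vehicle and 100% = no enzyme background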
Details: coupled enzyme assay; at 10 µM, active compounds read high
Express the result in % but write the number alone.

Here's what some known entries look like.
CC(C)(C)n1nnnc1CN1CCC(NC(=O)NC2CCCCC2)CC1 = 0
COC1=CC(=O)CC(C)C12Oc1c(Cl)c(OC)cc(OC)c1C2=O (stereo not given) = 0
Cn1c(C(=O)NCc2cccnc2)cc2sccc21 = 0
CC1CCN(S(=O)(=O)c2ccc(NC(=O)CSc3nnnn3C)cc2)CC1 = 2
COC(=O)c1ccc(-c2ccco2)n1Cc1nc(-c2ccc(OC)c(OC)c2)oc1C = 2
Cc1ccc(N2CC(C(=O)Nc3ccc4c(c3)OCO4)CC2=O)cc1 (stereo not given) = 6
Cc1[nH]c2ccc(F)cc2c(=O)c1SC(F)(F)C(F)C(F)(F)F (stereo not given) = 1
O=C(CSc1ncnc2nc[nH]c12)c1ccc(Cl)cc1 = 1

Please list inhibition recorded for the compound CCOc1cccc(-c2nnc3n2N=C(c2cc(OC)ccc2OC)CS3)c1
8

Please list inhibition recorded for the compound Nc1nonc1-n1nnc(C(=O)c2ccccc2)c1-c1ccccc1
0

###

Known inhibition of a selection of molecules
Molecular target: Pantothenate synthetase (Mycobacterium tuberculosis (strain ATCC 25618 / H37Rv))
Assay: Coupled enzyme confirmation of inhibitors against recombinant Mtb PanC (AID 375);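 further: 0% = full reaction with vehicle and 100% = no enzyme background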
Conditions: coupled enzyme assay; at 10 µM, active compounds read high
Express the result in % but write the number alone.

CC1NC(=O)NC1CCCCCC(=O)NCCc1ccccc1 (stereo unspecified) = 2

Please list inhibition recorded for the molecule Cc1ccc(-c2nnc3ccc(SCC(=O)NCc4ccco4)nn23)cc1
0

Please list inhibition recorded for the molecule CCOc1ccc(NC(=O)CN2C(=O)C3CCCN3C2=O)cc1 (stereo unspecified)
0

Please list inhibition recorded for the molecule O=S(=O)(Nc1ccccn1)c1ccc(Oc2ccccc2)cc1
1

###

Target: Pantothenate synthetase (Mycobacterium tuberculosis (strain ATCC 25618 / H37Rv)) (UniProt P9WIL5)
Experiment: Coupled enzyme confirmation of inhibitors against recombinant Mtb PanC (AID 375);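 further: 0% = full reaction with vehicle and 100% = no enzyme background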
Settings: coupled enzyme assay; at 10 µM, active compounds read high
Known inhibition of a selection of compounds
Express the result in % but write the number alone.

Here's what some known entries look like.
O=C(Nc1ccc(S(=O)(=O)NCCc2ccccc2)cc1)c1ccc(Br)o1 = 3
CCCOc1ccc2nc(NC(=O)OC)[nH]c2c1 = 0

Please list inhibition recorded for the compound O=C(Nc1ccc2c(c1)OCCO2)C1CCN(C(=O)c2ccc(F)cc2)CC1
0

Please list inhibition recorded for the compound CCCC(=O)N(c1ccc2oc(=O)sc2c1)S(=O)(=O)c1ccccc1
0

Please list inhibition recorded for the compound Cc1ccc(NCC(O)C(O)C(O)CO)cc1C (stereo not given)
0

Please list inhibition recorded for the compound COc1ccc(S(=O)(=O)NCCC(=O)NC2CCCCCCC2)cc1
0

Please list inhibition recorded for the compound COc1ccc(N(CC(=O)Nc2ccc3c(c2)OCO3)S(=O)(=O)c2c(C)nn(C)c2C)cc1
0
